test: chemical genetic growth profiling, strain panel (AID 1159580);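 further: tested at 20 µM; growth read once vehicle control cultures reached saturation at 30 °C; 1 = growth at the plate median or of vehicle wells; lower values mean less growth of the strain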; conditions: S. cerevisiae deletion strains, growth OD, locus YLR330W, strain CHS5, active compounds read low
Screen size: about 5,500 compounds; about 2,000 (36%) were called active. Roughly 18% stayed inconclusive and do not appear here. This is one part of the list.
Below, each of the compounds is paired with its reported normalized growth value.
Just the number, please.

// below: answered compounds
# COMPOUND, MEASURE_NAME, MEAS_VALUE
data = [
    ("Cc1cc(=O)c2c(o1)-c1c(cc(O)c(O)c1C(=O)O)OC2", "normalized growth", 0.991),
    ("Nc1nc(N)c2nc(-c3ccccc3)c(N)nc2n1", "normalized growth", 1.01),
    ("COCCOC(=O)C1=C(C)NC(C)=C(C(=O)OC(C)C)C1c1cccc([N+](=O)[O-])c1 (stereo not drawn)", "normalized growth", 1.01),
]

**Query** If you can, please state the reported normalized growth value of Nc1ccc(C(=O)O)c(O)c1 (tested in a mixture with another compound) .
**Result** 0.994

**Query** If you can, please state the reported normalized growth value of CC(C)c1ccc2c(c1O)CC[C@H]1C3=C(CC[C@]21C)C(=O)OC3 .
**Result** 0.638
